# Target or system: B-RAF G466V (Homo sapiens, UniProt P15056, G466V)
# Construct: expressed in transfected cells; host or cells: T-Rex 293 cells (Invitrogen #R71007)
# Sequence (P15056 whole entry G466V): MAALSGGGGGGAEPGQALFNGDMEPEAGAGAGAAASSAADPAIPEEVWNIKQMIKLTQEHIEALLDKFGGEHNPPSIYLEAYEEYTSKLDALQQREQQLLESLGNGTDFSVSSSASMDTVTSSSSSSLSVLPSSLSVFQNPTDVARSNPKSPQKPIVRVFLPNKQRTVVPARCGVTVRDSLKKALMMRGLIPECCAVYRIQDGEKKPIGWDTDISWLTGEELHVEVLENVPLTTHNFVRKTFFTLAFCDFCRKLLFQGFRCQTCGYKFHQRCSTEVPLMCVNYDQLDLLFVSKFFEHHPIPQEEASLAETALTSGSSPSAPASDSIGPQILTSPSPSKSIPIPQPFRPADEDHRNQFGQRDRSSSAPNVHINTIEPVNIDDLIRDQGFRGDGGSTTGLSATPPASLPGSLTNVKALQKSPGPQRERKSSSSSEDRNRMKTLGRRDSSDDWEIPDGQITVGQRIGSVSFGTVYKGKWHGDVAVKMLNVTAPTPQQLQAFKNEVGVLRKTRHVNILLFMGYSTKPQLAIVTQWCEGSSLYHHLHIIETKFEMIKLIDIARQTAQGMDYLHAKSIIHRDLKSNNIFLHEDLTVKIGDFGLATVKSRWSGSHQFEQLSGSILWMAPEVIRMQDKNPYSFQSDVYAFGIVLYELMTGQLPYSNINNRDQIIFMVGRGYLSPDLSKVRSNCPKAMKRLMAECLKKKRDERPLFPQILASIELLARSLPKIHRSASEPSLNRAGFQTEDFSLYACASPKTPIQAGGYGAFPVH
# Protocol: Target protein degradation, assay D: T-Rex 293 cells, HA-BRAF_G466V, 384 well format
# Type: cell-based
# Experimental setup: T-REx-293, Assay D, T-Rex 293 HA-BRAF_G466V cells, 24 hours, Examples 83-269
Measurement type: Dmax

Previously resolved entries follow.
Compound	Measurement type	Experimental value
N#Cc1c(NS(=O)(=O)N2CC[C@@H](F)C2)ccc(F)c1Oc1ccc2ncn(-c3cnc(N4CCN(CC5CCN(c6ccc7c(c6)CN(C6CCC(=O)NC6=O)C7=O)CC5)CC4)cn3)c(=O)c2c1 (stereo partly drawn)	Dmax	≤ 35%
N#Cc1c(NS(=O)(=O)N2CC[C@@H](F)C2)ccc(F)c1Oc1ccc2ncn(-c3ccc(N4CCC5(CC4)CN(c4cccc6c4CN(C4CCC(=O)NC4=O)C6=O)C5)nc3)c(=O)c2c1 (stereo partly drawn)	Dmax	≤ 35%
N#Cc1c(NS(=O)(=O)N2CC[C@@H](F)C2)ccc(F)c1Oc1ccc2ncn(-c3ccc(N4CCC(CN5CC6(C5)CN(c5ccc7c(c5)C(=O)N(C5CCC(=O)NC5=O)C7=O)C6)CC4)nc3)c(=O)c2c1 (stereo partly drawn)	Dmax	35 to 70%
N#Cc1c(NS(=O)(=O)N2CC[C@@H](F)C2)ccc(F)c1Oc1ccc2ncn(-c3cccc(C4CCN(CC5CN(c6ccc7c(c6)CN([C@H]6CCC(=O)NC6=O)C7=O)C5)CC4)c3)c(=O)c2c1	Dmax	≥ 70%
N#Cc1c(NS(=O)(=O)N2CC[C@@H](F)C2)ccc(F)c1Oc1ccc2ncn(-c3ccc(N4CCC(CN5CCN(c6ccc7c(c6)CN([C@H]6CCC(=O)NC6=O)C7=O)CC5)C4)cc3)c(=O)c2c1 (stereo partly drawn)	Dmax	≤ 35%

Q. So what's the measured Dmax for this one? `N#Cc1c(NS(=O)(=O)N2CC[C@@H](F)C2)ccc(F)c1Oc1ccc2ncn(-c3ccc(C4CCC5(CC4)CCN(CC4CCN(c6ccc7c(c6)CN([C@H]6CCC(=O)NC6=O)C7=O)CC4)CC5)cc3)c(=O)c2c1`
A. 35 to 70%

Q. Reported Dmax, compound N#Cc1c(NS(=O)(=O)N2CC[C@@H](F)C2)ccc(F)c1Oc1ccc2ncn(-c3ccc(N4CC5(CC(CN6CCC(c7ccc8c(c7)CN(C7CCC(=O)NC7=O)C8=O)CC6)C5)C4)cc3)c(=O)c2c1 (stereo partly drawn) : ____
A. 35 to 70%

Q. Given the compound N#Cc1c(NS(=O)(=O)N2CC[C@@H](F)C2)ccc(F)c1Oc1ccc2ncn(-c3cccc(N4CCN(CC5CCN(c6ccc7c(c6)CN(C6CCC(=O)NC6=O)C7=O)CC5)CC4)c3)c(=O)c2c1 (stereo partly drawn) , what is its reported Dmax?
A. 35 to 70%

Q. Query (compound): CCN(C)S(=O)(=O)Nc1ccc(F)c(Oc2ccc3ncn(-c4ccc(N5CCN(CC6CN(c7ccc8c(c7)CN(C7CCC(=O)NC7=O)C8=O)C6)CC5)cc4)c(=O)c3c2)c1C#N (stereo not drawn) ; field requested: Dmax
A. ≤ 35%

Q. Fill in: Dmax of `N#Cc1c(NS(=O)(=O)N2CC[C@@H](F)C2)ccc(F)c1Oc1ccc2ncn(-c3ccc(N4CC5(CCN(CC6CCN(c7ccc8c(c7)CN([C@H]7CCC(=O)NC7=O)C8=O)CC6)CC5)C4)cc3)c(=O)c2c1` is ___
A. 35 to 70%

Q. // Dmax lookup, key: N#Cc1c(NS(=O)(=O)N2CC[C@@H](F)C2)ccc(F)c1Oc1ccc2ncn(-c3cccc(C4CCN(CC5CCN(c6ccc7c(c6)CN([C@H]6CCC(=O)NC6=O)C7=O)CC5)C4)c3)c(=O)c2c1 (stereo partly drawn) [Example 211]
A. 35 to 70%

Q. Dear colleague, I am looking for the recorded Dmax of the following compound: `N#Cc1c(NS(=O)(=O)N2CC[C@@H](F)C2)ccc(F)c1Oc1ccc2ncn(-c3ccc(C4CCN(CC5CN(c6ccc7c(c6Cl)CN([C@H]6CCC(=O)NC6=O)C7=O)C5)CC4)cc3)c(=O)c2c1`
A. 35 to 70%

Q. If you can, please state the reported Dmax value of N#Cc1c(NS(=O)(=O)N2CC[C@@H](F)C2)ccc(F)c1Oc1ccc2ncn(-c3cnc(N4CC5(CN(CC6CCN(c7cccc8c7C(=O)N(C7CCC(=O)NC7=O)C8=O)CC6)C5)C4)nc3)c(=O)c2c1 (stereo partly drawn) .
A. ≤ 35%

Q. Please give the measured Dmax for this compound: `N#Cc1c(NS(=O)(=O)N2CC[C@@H](F)C2)ccc(F)c1Oc1ccc2ncn(-c3ccc(N4CCC(CN5CCC6(CCC(c7ccc8c(c7)CN([C@H]7CCC(=O)NC7=O)C8=O)CC6)CC5)CC4)cc3)c(=O)c2c1`
A. ≥ 70%

Q. Recorded Dmax for `N#Cc1c(NS(=O)(=O)N2CC[C@@H](F)C2)ccc(F)c1Oc1ccc2ncn(-c3ccc(N4CCC(CN5CCC(c6ccc([C@H]7CCC(=O)NC7=O)cc6F)CC5)CC4)cc3)c(=O)c2c1` , please?
A. ≤ 35%

Q. Recorded Dmax of `CN(c1ccc2c(c1)CN([C@H]1CCC(=O)NC1=O)C2=O)[C@H]1CC[C@@H](N2CCN(c3ccc(-n4cnc5ccc(Oc6c(F)ccc(NS(=O)(=O)N7CC[C@@H](F)C7)c6C#N)cc5c4=O)cc3)CC2)CC1` , please.
A. 35 to 70%

Q. Look at this compound and give its reported Dmax. N#Cc1c(NS(=O)(=O)N2CC[C@@H](F)C2)ccc(F)c1Oc1ccc2ncn(-c3ccc(N4CCN(CC5CCN(c6cc7c(c(OC(F)(F)F)c6)C(=O)N(C6CCC(=O)NC6=O)C7)CC5)CC4)cc3)c(=O)c2c1 (stereo partly drawn)
A. 35 to 70%

Q. Given `N#Cc1c(NS(=O)(=O)N2CC[C@@H](F)C2)ccc(F)c1Oc1ccc2ncn(-c3ccc(C4CCN(CC5CN(c6ccc7c(c6)CN([C@H]6CCC(=O)NC6=O)C7=O)C5)CC4)cc3)c(=O)c2c1` , state its recorded Dmax.
A. ≥ 70%

* * *

# Target or system: B-RAF V600E (Homo sapiens, UniProt P15056, V600E)
# Construct: expressed in transfected cells; host or cells: T-Rex 293 cells (Invitrogen #R71007)
# Sequence (P15056 whole entry V600E): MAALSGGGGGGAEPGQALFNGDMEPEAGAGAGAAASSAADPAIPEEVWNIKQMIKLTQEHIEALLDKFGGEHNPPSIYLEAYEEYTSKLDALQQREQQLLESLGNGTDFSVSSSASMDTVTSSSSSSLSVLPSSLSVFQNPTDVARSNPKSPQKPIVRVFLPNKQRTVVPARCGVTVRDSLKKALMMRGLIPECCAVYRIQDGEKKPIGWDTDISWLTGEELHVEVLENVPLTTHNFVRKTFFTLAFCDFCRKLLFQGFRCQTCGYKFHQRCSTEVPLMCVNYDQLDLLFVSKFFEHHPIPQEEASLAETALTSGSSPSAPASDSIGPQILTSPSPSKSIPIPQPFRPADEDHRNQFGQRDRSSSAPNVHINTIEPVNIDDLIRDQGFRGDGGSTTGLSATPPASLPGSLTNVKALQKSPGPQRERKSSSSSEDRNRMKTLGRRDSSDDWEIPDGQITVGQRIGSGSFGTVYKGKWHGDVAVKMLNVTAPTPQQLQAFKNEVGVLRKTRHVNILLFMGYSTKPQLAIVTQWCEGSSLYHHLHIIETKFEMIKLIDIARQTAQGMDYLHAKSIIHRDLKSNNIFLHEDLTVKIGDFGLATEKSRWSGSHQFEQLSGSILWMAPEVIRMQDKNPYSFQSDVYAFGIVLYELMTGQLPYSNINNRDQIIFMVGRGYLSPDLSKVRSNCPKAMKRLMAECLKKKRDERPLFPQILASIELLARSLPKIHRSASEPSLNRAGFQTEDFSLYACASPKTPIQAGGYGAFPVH
# Protocol: Target protein degradation, assay C: T-Rex 293 cells, HA-BRAF_V600E, 384 well format
# Type: cell-based
# Experimental setup: Assay C, T-Rex 293 HA-BRAF_V600E cells, 24 hours, Examples 83-269
Measurement type: DC50

See these solved cases before continuing.
Molecule	DC50
COc1ccc(N2CCC(CN3CCN(c4ccc(-n5cnc6ccc(Oc7c(F)ccc(NS(=O)(=O)N8CC[C@@H](F)C8)c7C#N)cc6c5=O)cn4)CC3)CC2)cc1C(=O)NC1CCC(=O)NC1=O (stereo partly drawn)	50 to 500 nM
O=C1CCC(N2Cc3cc(N4CCC(CN5CCN(c6ccc(-n7cnc8ccc(Oc9c(F)ccc(NS(=O)(=O)N%10CC[C@@H](F)C%10)c9Cl)cc8c7=O)cc6)CC5)CC4)ccc3C2=O)C(=O)N1 (stereo partly drawn)	50 to 500 nM

Q. Which DC50 reading was recorded for the molecule `N#Cc1c(NS(=O)(=O)N2CC[C@@H](F)C2)ccc(F)c1Oc1ccc2ncn(-c3ccc(N4CCC(CN5CC(c6ccc([C@@H]7CCC(=O)NC7=O)cc6F)C5)CC4)cc3)c(=O)c2c1` ?
A. 50 to 500 nM

* * *

# Target or system: B-RAF G466V (Homo sapiens, UniProt P15056, G466V)
# Construct: expressed in transfected cells; host or cells: T-Rex 293 cells (Invitrogen #R71007)
# Protocol: Target protein degradation, assay D: T-Rex 293 cells, HA-BRAF_G466V, 384 well format
# Format: cell-based
# Experimental setup: Assay D, T-Rex 293 HA-BRAF_G466V cells, 24 hours, Examples 83-269
Measured DC50, listed per entry.

# example entries with known answers
Compound	DC50
N#Cc1c(NS(=O)(=O)N2CC[C@@H](F)C2)ccc(F)c1Oc1ccc2ncn(-c3ccc(N4CC5(CCN(CC6CCN(c7ccc8c(c7)CN([C@H]7CCC(=O)NC7=O)C8=O)CC6)CC5)C4)cc3)c(=O)c2c1 [Example 192]	1 to 10 nM
N#Cc1c(NS(=O)(=O)N2CC[C@@H](F)C2)ccc(F)c1Oc1ccc2ncn(-c3ccc(N4CC(CN5CC(c6ccc7c(c6)CN([C@@H]6CCC(=O)NC6=O)C7=O)C5)C4)cc3)c(=O)c2c1 [Example 205]	1 to 10 nM
N#Cc1c(NS(=O)(=O)N2CCC(F)C2)ccc(F)c1Oc1ccc2ncn(-c3ccc(N4CCN(CC5CN(c6ccc7c(c6)CN(C6CCC(=O)NC6=O)C7=O)C5)CC4)cc3)c(=O)c2c1 (centres unmarked) [Example 194]	1 to 10 nM

Q. Item under review: N#Cc1c(NS(=O)(=O)N2CC[C@@H](F)C2)ccc(F)c1Oc1ccc2ncn(-c3cnc(N4CCC(CN5CC6(CCN(c7ccc8c(c7)CN(C7CCC(=O)NC7=O)C8=O)CC6)C5)CC4)nc3)c(=O)c2c1 (some centres unmarked) [Example 132] . Reported DC50?
A. ≤ 1 nM

Q. Which DC50 reading was recorded for the compound N#Cc1c(NS(=O)(=O)N2CC[C@H](F)C2)ccc(F)c1Oc1ccc2ncn(-c3ccc(N4CCN(CC5CN(c6ccc7c(c6)CN([C@H]6CCC(=O)NC6=O)C7=O)C5)CC4)cc3)c(=O)c2c1 [Example 195] ?
A. 1 to 10 nM
